Source of measurements: ChEMBL document CHEMBL3593206

# system.tested: Disintegrin and metalloproteinase domain-containing protein 17 (Homo sapiens)
# experimental.protocol: Inhibition of ADAM17 (unknown origin) preincubated for 30 mins followed by substrate addition measured every 30 mins for 2 hrs by fluorescence assay
pIC50: −log10 of the molar value.
quantity.kind: pIC50

{"test.smiles": "O=C1NC[C@@H](Cc2ccc3ccccc3c2)N(C[C@@H]2CCCN2C[C@H](Cc2ccc(O)cc2)N2C[C@@H](Cc3ccc4ccccc4c3)N(CCC34CC5CC(CC(C5)C3)C4)C(=O)C2=O)C1=O", "system.tested": "Disintegrin and metalloproteinase domain-containing protein 17 (Homo sapiens)", "numeric.result": 5.24}
{"test.smiles": "CCC[C@H]1CNC(=O)C(=O)N1C[C@@H]1CCCN1C[C@H](Cc1ccc(O)cc1)N1C[C@H](Cc2ccc(O)cc2)N(CCC23CC4CC(CC(C4)C2)C3)C(=O)C1=O", "system.tested": "Disintegrin and metalloproteinase domain-containing protein 17 (Homo sapiens)", "numeric.result": 5.23}
{"test.smiles": "CCC[C@H]1CNC(=O)C(=O)N1C[C@@H]1CCCN1C[C@H](Cc1ccc(O)cc1)N1C[C@@H](Cc2ccc3ccccc3c2)N(CCC23CC4CC(CC(C4)C2)C3)C(=O)C1=O", "system.tested": "Disintegrin and metalloproteinase domain-containing protein 17 (Homo sapiens)", "numeric.result": 5.10}

---

# IC50 values compiled below
# system.tested: Disintegrin and metalloproteinase domain-containing protein 17 (Homo sapiens, UniProt P78536)
# Sequence (P78536 whole entry, the tested form may be a part): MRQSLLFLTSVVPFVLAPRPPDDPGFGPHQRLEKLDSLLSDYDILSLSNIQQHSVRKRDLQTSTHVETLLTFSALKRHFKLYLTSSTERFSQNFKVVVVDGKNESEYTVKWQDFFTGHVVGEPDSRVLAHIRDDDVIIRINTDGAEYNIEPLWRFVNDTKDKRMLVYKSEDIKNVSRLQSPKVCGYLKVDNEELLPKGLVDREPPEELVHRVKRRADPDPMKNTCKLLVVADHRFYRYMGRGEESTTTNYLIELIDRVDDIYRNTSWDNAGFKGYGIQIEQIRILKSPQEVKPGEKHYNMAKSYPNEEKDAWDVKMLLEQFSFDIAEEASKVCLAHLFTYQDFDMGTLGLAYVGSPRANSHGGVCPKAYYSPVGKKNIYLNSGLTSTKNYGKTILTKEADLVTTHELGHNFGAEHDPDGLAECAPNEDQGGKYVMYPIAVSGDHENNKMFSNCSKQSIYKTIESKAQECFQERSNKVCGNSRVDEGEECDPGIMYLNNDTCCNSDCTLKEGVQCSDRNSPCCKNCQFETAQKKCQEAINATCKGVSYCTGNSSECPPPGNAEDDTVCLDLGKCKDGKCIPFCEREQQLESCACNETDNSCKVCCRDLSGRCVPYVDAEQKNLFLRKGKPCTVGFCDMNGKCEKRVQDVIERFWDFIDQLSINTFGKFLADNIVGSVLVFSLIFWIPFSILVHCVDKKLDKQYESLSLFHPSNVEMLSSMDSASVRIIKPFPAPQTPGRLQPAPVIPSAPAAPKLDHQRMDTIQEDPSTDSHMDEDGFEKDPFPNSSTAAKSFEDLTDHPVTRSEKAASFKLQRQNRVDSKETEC
# experimental.protocol: Inhibition of ADAM17 (unknown origin) preincubated for 30 mins followed by substrate addition measured every 30 mins for 2 hrs by fluorescence assay

{"compound": "O=C1NC[C@@H](Cc2ccc(O)cc2)N(C[C@@H]2CCCN2C[C@@H](Cc2ccc3ccccc3c2)N2CC(Cc3ccc(O)cc3)N(CCC34CC5CC(CC(C5)C3)C4)C(=O)C2=O)C1=O (single isomer, unassigned)", "IC50": "4.2 µM"}
{"compound": "CCC[C@H]1CNC(=O)C(=O)N1C[C@@H]1CCCN1C[C@H](Cc1ccc(O)cc1)N1C[C@H](Cc2ccc(O)cc2)N(CC23CC4CC(CC(C4)C2)C3)C(=O)C1=O", "IC50": "10 µM"}
{"compound": "CCCC[C@H]1CN([C@@H](Cc2ccc(O)cc2)CN2CCC[C@H]2CN2C(=O)C(=O)NC[C@H]2Cc2ccc3ccccc3c2)C(=O)C(=O)N1CCC12CC3CC(CC(C3)C1)C2", "IC50": "5.7 µM"}
{"compound": "O=C1NC[C@@H](Cc2ccc3ccccc3c2)N(C[C@@H]2CCCN2C[C@H](Cc2ccc(O)cc2)N2C[C@H](Cc3ccc(O)cc3)N(CCC34CC5CC(CC(C5)C3)C4)C(=O)C2=O)C1=O", "IC50": "8.1 µM"}
{"compound": "O=C1NC[C@H](Cc2ccccc2)N(C[C@@H]2CCCN2C[C@H](Cc2ccccc2)N2C[C@H](Cc3ccc(O)cc3)N(CCC34CC5CC(CC(C5)C3)C4)C(=O)C2=O)C1=O", "IC50": "11 µM"}

---

# system.tested: Disintegrin and metalloproteinase domain-containing protein 17 (Homo sapiens)
# experimental.protocol: Inhibition of ADAM17 in human THP1 cells assessed as inhibition of LPS-stimulated TNFalpha cleavage at 25 uM after 1 hr by AlphaScreen assay relative to control
# Type: cell-based
# test.settings: THP-1

{"test.smiles": "CCCC[C@H]1CN([C@@H](Cc2ccc(O)cc2)CN2CCC[C@H]2CN2C(=O)C(=O)NC[C@H]2Cc2ccc3ccccc3c2)C(=O)C(=O)N1CCC12CC3CC(CC(C3)C1)C2", "system.tested": "Disintegrin and metalloproteinase domain-containing protein 17 (Homo sapiens)", "inhibition / %": 57}
{"test.smiles": "CCC[C@H]1CNC(=O)C(=O)N1C[C@@H]1CCCN1C[C@@H](CC1CCCCC1)N1C[C@H](Cc2ccccc2)N(CCc2ccccc2)C(=O)C1=O", "system.tested": "Disintegrin and metalloproteinase domain-containing protein 17 (Homo sapiens)", "inhibition / %": 60}
{"test.smiles": "O=C1NC[C@H](Cc2ccccc2)N(C[C@@H]2CCCN2C[C@@H](CC2CCCCC2)N2C[C@H](Cc3ccc(O)cc3)N(CCc3ccccc3)C(=O)C2=O)C1=O", "system.tested": "Disintegrin and metalloproteinase domain-containing protein 17 (Homo sapiens)", "inhibition / %": 36}

---

# pIC50 values compiled below
# system.tested: Disintegrin and metalloproteinase domain-containing protein 17 (Homo sapiens)
# experimental.protocol: Inhibition of ADAM17 (unknown origin) preincubated for 30 mins followed by substrate addition measured every 30 mins for 2 hrs by fluorescence assay
pIC50: −log10 of the molar value.
quantity.kind: pIC50

{"test.smiles": "CCC[C@H]1CNC(=O)C(=O)N1C[C@@H]1CCCN1C[C@H](Cc1ccc(O)cc1)N1C[C@H](Cc2ccc3ccccc3c2)N(CCC23CC4CC(CC(C4)C2)C3)C(=O)C1=O", "quantity.kind": "pIC50", "numeric.result": 5.00}
{"test.smiles": "O=C1NC[C@@H](Cc2ccc3ccccc3c2)N(C[C@@H]2CCCN2C[C@H](Cc2ccc(O)cc2)N2C[C@@H](Cc3ccc(O)cc3)N(CCC34CC5CC(CC(C5)C3)C4)C(=O)C2=O)C1=O", "quantity.kind": "pIC50", "numeric.result": 4.82}
{"test.smiles": "O=C1NC[C@@H](Cc2ccc3ccccc3c2)N(C[C@@H]2CCCN2C[C@H](Cc2ccc(O)cc2)N2C[C@H](Cc3ccc4ccccc4c3)N(CCC34CC5CC(CC(C5)C3)C4)C(=O)C2=O)C1=O", "quantity.kind": "pIC50", "numeric.result": 5.08}

---

# system.tested: Disintegrin and metalloproteinase domain-containing protein 17 (Homo sapiens)
# experimental.protocol: Inhibition of ADAM17 in human THP1 cells assessed as inhibition of LPS-stimulated TNFalpha cleavage at 25 uM after 1 hr by AlphaScreen assay relative to control
# Type: cell-based
# test.settings: THP-1
# inhibition values compiled below
quantity.kind: inhibition (%)

{"compound": "O=C1NC[C@@H](Cc2ccc(O)cc2)N(C[C@@H]2CCCN2C[C@@H](Cc2ccc3ccccc3c2)N2CC(Cc3ccc(O)cc3)N(CCC34CC5CC(CC(C5)C3)C4)C(=O)C2=O)C1=O (single isomer, unassigned)", "quantity.kind": "inhibition", "numeric.result": 43}
{"compound": "O=C1NCC(Cc2ccccc2)N(C[C@@H]2CCCN2C[C@@H](CC2CCCCC2)N2C[C@H](Cc3ccccc3)N(CCc3ccccc3)C(=O)C2=O)C1=O (single isomer, unassigned)", "quantity.kind": "inhibition", "numeric.result": 0}
{"compound": "O=C1NC[C@H](Cc2ccccc2)N(C[C@@H]2CCCN2C[C@H](Cc2ccccc2)N2C[C@H](Cc3ccc(O)cc3)N(CCC34CC5CC(CC(C5)C3)C4)C(=O)C2=O)C1=O", "quantity.kind": "inhibition", "numeric.result": 44}

---

# system.tested: Disintegrin and metalloproteinase domain-containing protein 17 (Homo sapiens, UniProt P78536)
# experimental.protocol: Inhibition of ADAM17 in human A549 cells assessed as inhibition of PMA-stimulated heregulin shedding at 40 uM incubated for 1 hr followed by PMA stimulation measured after 1 hr
# Format: cell-based
quantity.kind: inhibition (%)

{"molecule": "O=C1NCC(Cc2ccccc2)N(C[C@@H]2CCCN2C[C@@H](CC2CCCCC2)N2C[C@H](Cc3ccccc3)N(CCc3ccccc3)C(=O)C2=O)C1=O (single isomer, unassigned)", "numeric.result": 34}
{"molecule": "O=C1NC[C@@H](Cc2ccc(O)cc2)N(C[C@@H]2CCCN2C[C@@H](Cc2ccc3ccccc3c2)N2CC(Cc3ccc(O)cc3)N(CCC34CC5CC(CC(C5)C3)C4)C(=O)C2=O)C1=O (single isomer, unassigned)", "numeric.result": 100}
{"molecule": "CCCC[C@H]1CN([C@@H](Cc2ccc(O)cc2)CN2CCC[C@H]2CN2C(=O)C(=O)NC[C@H]2Cc2ccc3ccccc3c2)C(=O)C(=O)N1CCC12CC3CC(CC(C3)C1)C2", "numeric.result": 0}
{"molecule": "O=C1NC[C@H](Cc2ccccc2)N(C[C@@H]2CCCN2C[C@H](Cc2ccccc2)N2C[C@H](Cc3ccc(O)cc3)N(CCC34CC5CC(CC(C5)C3)C4)C(=O)C2=O)C1=O", "numeric.result": 0}
{"molecule": "O=C1NC[C@H](Cc2ccccc2)N(C[C@@H]2CCCN2C[C@@H](CC2CCCCC2)N2C[C@H](Cc3ccc(O)cc3)N(CCc3ccccc3)C(=O)C2=O)C1=O", "numeric.result": 0}
{"molecule": "CCC[C@H]1CNC(=O)C(=O)N1C[C@@H]1CCCN1C[C@@H](CC1CCCCC1)N1C[C@H](Cc2ccccc2)N(CCc2ccccc2)C(=O)C1=O", "numeric.result": 28}

---

# IC50 values compiled below
# system.tested: Matrix metalloproteinase-14 (Homo sapiens)

{"test.smiles": "O=C1NC[C@H](Cc2ccccc2)N(C[C@@H]2CCCN2C[C@@H](CC2CCCCC2)N2C[C@H](Cc3ccc(O)cc3)N(CCc3ccccc3)C(=O)C2=O)C1=O", "IC50": "> 100 µM"}
{"test.smiles": "CCC[C@H]1CNC(=O)C(=O)N1C[C@@H]1CCCN1C[C@@H](CC1CCCCC1)N1C[C@H](Cc2ccccc2)N(CCc2ccccc2)C(=O)C1=O", "IC50": "> 100 µM"}
{"test.smiles": "CCCC[C@H]1CN([C@@H](Cc2ccc(O)cc2)CN2CCC[C@H]2CN2C(=O)C(=O)NC[C@H]2Cc2ccc3ccccc3c2)C(=O)C(=O)N1CCC12CC3CC(CC(C3)C1)C2", "IC50": "> 100 µM"}
